test system: Plasmodium falciparum; experiment: Antimalarial activity against chloroquine-resistant Plasmodium falciparum Dd2 infected in O+ human erythrocytes by [3H]hypoxanthine incorporation assay; type: functional, organism-based
Assay metric: pIC50
Entry type: numeric. Quantity: pIC50, the -log10 of concentration in molar units.

Tell me the measured pIC50 of O=C(/C=C/c1ccccc1)N[C@@H](CCCCCC(=O)NO)C(=O)NCc1ccccc1 , please.
6.99

Tell me the measured pIC50 of O=C(/C=C\c1ccccc1)N[C@@H](CSCCCC(=O)NO)C(=O)NCc1ccccc1 , please.
6.47

Tell me the measured pIC50 of O=C(CCCCC[C@H](NC(=O)c1cc2ccccc2[nH]1)C(=O)Nc1cccc2cccnc12)NO , please.
7.48

Tell me the measured pIC50 of CN(C)c1ccc(C(=O)N[C@@H](CSCCCC(=O)NO)C(=O)Nc2ccc(-c3ccccc3)cc2)cc1 , please.
6.89

Tell me the measured pIC50 of O=C(CCCCC[C@H](NC(=O)c1cc2ccccc2[nH]1)C(=O)NCc1ccccc1)NO , please.
7.20

Origin of the recorded values: ChEMBL document CHEMBL1255291
